Each item that follows carries a reported TGI.
System: HCC-2998 colon
Experiment: NCI tumour cell line growth inhibition, 48 h
quantity.name: TGI

1. CCc1ccccc1N=NC(=O)NNc1ccccc1CC 29.9 µM
2. N#Cc1c(-c2ccc(Cl)c(Cl)c2)c(-c2ccc(Cl)c(Cl)c2)nn(CC(=O)O)c1=O > 100 µM
3. CC(O)(Cc1ccccc1C#N)Cc1ccccc1C#N > 100 µM

###

Reported TGI values for the following compounds.
System: SNB-78 CNS
Assay: NCI tumour cell line growth inhibition, 48 h

compound	system.tested	TGI
O=C(/C=C/c1cc(Cl)cc(Cl)c1O)c1cccc(O)c1	SNB-78 CNS	> 100 µM
COc1ccc(C2=C(Cl)c3cc(OC)c(OC)cc3C2OC)cc1OC (stereo not drawn)	SNB-78 CNS	> 100 µM
COC(=O)C1CCc2c1c(=O)n1c([nH]c3ccccc31)c2C#N (stereo not drawn)	SNB-78 CNS	> 100 µM

Attribution: PubChem BioAssay (NCI)
